Values from ChEMBL document CHEMBL1122153

- Tested on: Bacillus subtilis
- TEST NAME: Minimum inhibitory concentration (MIC) required to inhibit the growth of Bacillus subtilis PCI 219 by using nutrient agar as growth medium
- Assay type: functional
TEST READOUT: MIC (µg/mL)

(1) CCCC(=O)OC1C(C)OC(OC2C(C)OC(O[C@H]3[C@@H](CC=O)C[C@@H](C)[C@@H](O)/C=C/C=C/C[C@@H](C)OC(=O)C[C@@H](O)[C@@H]3OC)C(O)C2N(C)C)CC1(C)O (stereo partly drawn)
(2) CO[C@@H]1[C@@H](OC2OC(C)C(OC3CC(C)(O)C(OC(=O)CC(C)C)C(C)O3)C(N(C)C)C2O)[C@@H](CCN)C[C@@H](C)[C@@H](O)/C=C/C=C/C[C@@H](C)OC(=O)C[C@H]1OC(C)=O (stereo partly drawn)
(3) CC[C@H]1C[C@@H](C)[C@@H](O)/C=C/C=C/C[C@@H](C)OC(=O)C[C@@H](OC(C)=O)[C@H](OC)[C@H]1OC1OC(C)C(OC2CC(C)(O)C(OC(=O)CC(C)C)C(C)O2)C(N(C)C)C1O (stereo partly drawn)
Prompt: Order field: MIC | Direction: descending (largest first) Present the labels in the sequence the task asks for.
Response: 2, 3, 1
(2: 50 µg/mL, 3: 6.25 µg/mL, 1: 0.2 µg/mL)
